List of CYP inhibition, CYP2D6 values.
tgt: CYP2D6 (Homo sapiens, UniProt P10635)
Sequence (P10635 whole entry): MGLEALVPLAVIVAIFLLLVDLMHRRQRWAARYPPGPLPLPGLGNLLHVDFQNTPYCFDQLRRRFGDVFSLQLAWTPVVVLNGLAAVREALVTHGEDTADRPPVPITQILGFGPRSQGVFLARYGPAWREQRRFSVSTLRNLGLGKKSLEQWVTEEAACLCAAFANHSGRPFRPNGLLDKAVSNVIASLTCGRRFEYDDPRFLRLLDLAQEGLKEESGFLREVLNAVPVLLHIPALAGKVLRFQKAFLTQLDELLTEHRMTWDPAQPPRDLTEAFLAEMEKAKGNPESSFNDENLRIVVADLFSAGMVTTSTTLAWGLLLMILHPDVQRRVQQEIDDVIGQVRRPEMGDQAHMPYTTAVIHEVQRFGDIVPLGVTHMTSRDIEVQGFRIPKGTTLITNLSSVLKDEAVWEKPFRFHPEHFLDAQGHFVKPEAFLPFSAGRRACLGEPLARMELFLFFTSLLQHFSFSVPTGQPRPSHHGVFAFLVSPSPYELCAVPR
procedure.text: CYP inhibition screening, CYP2D6
Assay type: in vitro ADME
test.settings: test concentration 10 μM
Just the number please, in %, no unit attached.

Worked cases, answers included:
[[record]]
compound = "Cc1cccc(NCc2ccc(O)c3ncccc23)c1C"
measure_unit = "%"
numeric_readout = "−2.6"

[[record]]
compound = "CCN(CC)c1ccc(CN2CCc3nc(C)[nH]c(=O)c3C2)c(OC)c1"
measure_unit = "%"
numeric_readout = 58.3

[[record]]
compound = "COc1ccc(N2CCN(C(c3ccc(N(C)C)cc3)c3nnnn3C(C)(C)C)CC2)cc1 (centres unmarked)"
measure_unit = "%"
numeric_readout = 1.4

[[record]]
compound = "Cn1c(=O)[nH]c(=O)c2c1nc(S)n2CC(O)COc1ccc(Cl)cc1 (centres unmarked)"
measure_unit = "%"
numeric_readout = 0.9


Query: Short answer please: CYP inhibition, CYP2D6, CYP2D6 (Homo sapiens, UniProt P10635), entry `Nc1ccc(N2CCOCC2)c2nonc12`
Reply: 21.9

###

CYP inhibition, CYP2C9 for assorted compounds
tgt: UniProt P11712
Sequence (P11712 whole entry): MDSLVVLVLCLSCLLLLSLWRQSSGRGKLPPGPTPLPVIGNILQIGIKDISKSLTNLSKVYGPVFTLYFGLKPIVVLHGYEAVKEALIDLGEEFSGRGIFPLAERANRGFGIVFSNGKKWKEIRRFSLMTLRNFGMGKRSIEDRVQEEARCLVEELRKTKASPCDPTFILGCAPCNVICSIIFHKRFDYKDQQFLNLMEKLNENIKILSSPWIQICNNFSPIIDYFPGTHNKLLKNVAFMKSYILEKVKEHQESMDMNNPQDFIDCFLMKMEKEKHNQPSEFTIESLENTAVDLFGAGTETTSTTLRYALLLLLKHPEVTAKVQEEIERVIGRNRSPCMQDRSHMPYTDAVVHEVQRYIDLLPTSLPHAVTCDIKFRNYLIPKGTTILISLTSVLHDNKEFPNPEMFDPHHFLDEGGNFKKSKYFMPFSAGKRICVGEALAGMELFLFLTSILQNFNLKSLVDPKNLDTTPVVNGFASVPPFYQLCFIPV
procedure.text: CYP inhibition screening, CYP2C9
Format: in vitro ADME
test.settings: test concentration 10 μM
The response must be a number in % with no trailing unit.

// worked examples, CYP inhibition, CYP2C9 included
[[record]]
compound = "CCN(CC)c1ccc(CN2CCc3nc(C)[nH]c(=O)c3C2)c(OC)c1 [Compound 64]"
recorded_endpoint = "CYP inhibition, CYP2C9"
numeric_readout = 7.9

[[record]]
compound = "Cn1c(=O)[nH]c(=O)c2c1nc(S)n2CC(O)COc1ccc(Cl)cc1 (centres unmarked) [Compound 38]"
recorded_endpoint = "CYP inhibition, CYP2C9"
numeric_readout = 17.1

[[record]]
compound = "Nc1ccc(N2CCOCC2)c2nonc12 [Compound 11]"
recorded_endpoint = "CYP inhibition, CYP2C9"
numeric_readout = 5.6


Query: CYP inhibition, CYP2C9 for Cc1cccc(NCc2ccc(O)c3ncccc23)c1C [Compound 12] ?
Reply: −2.7

Query: One more compound: COc1ccc(N2CCN(C(c3ccc(N(C)C)cc3)c3nnnn3C(C)(C)C)CC2)cc1 (centres unmarked) [Compound 31]
Reply: 69.2

###

Test system: Caco-2 monolayer
procedure.text: Caco-2 monolayer permeability screen
Assay type: in vitro ADME
test.settings: Caco-2
recorded.endpoint: B -> A Papp

Below, each entry is followed by its recorded B -> A Papp result.
[[record]]
compound = "Cc1cccc(NCc2ccc(O)c3ncccc23)c1C [Compound 12]"
tgt = "Caco-2 monolayer"
result = "3.7 10^−6 cm · s^−1"

[[record]]
compound = "CCN(CC)c1ccc(CN2CCc3nc(C)[nH]c(=O)c3C2)c(OC)c1 [Compound 64]"
tgt = "Caco-2 monolayer"
result = "<LLOQ"

[[record]]
compound = "Nc1ccc(N2CCOCC2)c2nonc12 [Compound 11]"
tgt = "Caco-2 monolayer"
result = "7.0 10^−6 cm · s^−1"

[[record]]
compound = "Cn1c(=O)[nH]c(=O)c2c1nc(S)n2CC(O)COc1ccc(Cl)cc1 (centres unmarked) [Compound 38]"
tgt = "Caco-2 monolayer"
result = "20.3 10^−6 cm · s^−1"


Query: What does the data say about its B -> A Papp? Entry: COc1ccc(N2CCN(C(c3ccc(N(C)C)cc3)c3nnnn3C(C)(C)C)CC2)cc1 (centres unmarked) [Compound 31]
Reply: 17.4 10^−6 cm · s^−1

###

test.settings: PAMPA
recorded.endpoint: Pe

[[record]]
molecule = "COc1ccc(N2CCN(C(c3ccc(N(C)C)cc3)c3nnnn3C(C)(C)C)CC2)cc1 (stereo not shown)"
result = "<LLOQ"

[[record]]
molecule = "Nc1ccc(N2CCOCC2)c2nonc12"
result = ">25 10^−6 cm · s^−1"

[[record]]
molecule = "Cn1c(=O)[nH]c(=O)c2c1nc(S)n2CC(O)COc1ccc(Cl)cc1 (stereo not shown)"
result = "0.007 10^−6 cm · s^−1"

[[record]]
molecule = "Cc1cccc(NCc2ccc(O)c3ncccc23)c1C"
result = "<LLOQ"


###

Reported CYP inhibition, CYP3A4-Midazolam values are given for each entry in this list.
tgt: CYP3A4 (Homo sapiens, UniProt P08684)
Sequence (P08684 whole entry): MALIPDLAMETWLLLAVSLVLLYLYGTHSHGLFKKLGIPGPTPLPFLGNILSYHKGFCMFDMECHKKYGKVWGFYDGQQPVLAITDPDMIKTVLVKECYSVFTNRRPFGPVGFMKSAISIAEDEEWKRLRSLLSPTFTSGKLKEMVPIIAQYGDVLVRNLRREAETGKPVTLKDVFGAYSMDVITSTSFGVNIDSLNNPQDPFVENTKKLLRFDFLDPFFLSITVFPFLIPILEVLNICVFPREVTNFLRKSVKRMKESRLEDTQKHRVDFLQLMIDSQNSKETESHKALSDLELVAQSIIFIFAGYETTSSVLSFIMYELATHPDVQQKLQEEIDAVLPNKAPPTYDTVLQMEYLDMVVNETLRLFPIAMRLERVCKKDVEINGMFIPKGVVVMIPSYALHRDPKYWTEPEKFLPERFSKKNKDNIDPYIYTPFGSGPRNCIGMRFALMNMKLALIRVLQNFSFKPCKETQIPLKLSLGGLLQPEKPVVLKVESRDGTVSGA
procedure.text: CYP inhibition screening, CYP3A4-Midazolam
Type: in vitro ADME
test.settings: test concentration 3 μM
# output: bare number, implied unit %

# example entries with known answers
[[record]]
compound = "Nc1ccc(N2CCOCC2)c2nonc12"
tgt = "CYP3A4 (Homo sapiens, UniProt P08684)"
numeric_readout = 3.6

[[record]]
compound = "Cn1c(=O)[nH]c(=O)c2c1nc(S)n2CC(O)COc1ccc(Cl)cc1 (centres unmarked)"
tgt = "CYP3A4 (Homo sapiens, UniProt P08684)"
numeric_readout = 7.3

[[record]]
compound = "CCN(CC)c1ccc(CN2CCc3nc(C)[nH]c(=O)c3C2)c(OC)c1"
tgt = "CYP3A4 (Homo sapiens, UniProt P08684)"
numeric_readout = 0.6

[[record]]
compound = "COc1ccc(N2CCN(C(c3ccc(N(C)C)cc3)c3nnnn3C(C)(C)C)CC2)cc1 (centres unmarked)"
tgt = "CYP3A4 (Homo sapiens, UniProt P08684)"
numeric_readout = "−0.9"


Now look at this entry.
Query: Param item = `Cc1cccc(NCc2ccc(O)c3ncccc23)c1C` ; retrieve measured CYP inhibition, CYP3A4-Midazolam.
Reply: −2.5

###

procedure.text: Liver microsomal stability, mouse
test.settings: mouse liver microsomes
recorded.endpoint: Mean Remaining Parent (NADPH-free)
Answers without a unit are incomplete; give the number and then its unit.

Study these solved cases before continuing.
[[record]]
compound = "Nc1ccc(N2CCOCC2)c2nonc12"
result = "103%"

[[record]]
compound = "Cc1cccc(NCc2ccc(O)c3ncccc23)c1C"
result = "0%"

[[record]]
compound = "COc1ccc(N2CCN(C(c3ccc(N(C)C)cc3)c3nnnn3C(C)(C)C)CC2)cc1 (stereo not shown)"
result = "86%"


Query: Item Cn1c(=O)[nH]c(=O)c2c1nc(S)n2CC(O)COc1ccc(Cl)cc1 (stereo not shown) has what recorded Mean Remaining Parent (NADPH-free)?
Reply: 99%

###

Test system: CYP3A
procedure.text: CYP inhibition screening, CYP3A-Testosterone
Format: in vitro ADME
test.settings: test concentration 10 μM
CYP inhibition, CYP3A-Testosterone of 20% or higher: TRUE. Under 20%: FALSE.

Look over these answered cases.
[[record]]
compound = "Cn1c(=O)[nH]c(=O)c2c1nc(S)n2CC(O)COc1ccc(Cl)cc1 (centres unmarked) [Compound 38]"
group = "FALSE"

[[record]]
compound = "COc1ccc(N2CCN(C(c3ccc(N(C)C)cc3)c3nnnn3C(C)(C)C)CC2)cc1 (centres unmarked) [Compound 31]"
group = "FALSE"

[[record]]
compound = "Nc1ccc(N2CCOCC2)c2nonc12 [Compound 11]"
group = "TRUE"

[[record]]
compound = "CCN(CC)c1ccc(CN2CCc3nc(C)[nH]c(=O)c3C2)c(OC)c1 [Compound 64]"
group = "FALSE"


For the next question, use this compound.
Query: Determine whether measured CYP inhibition, CYP3A-Testosterone meets or exceeds 20% for Cc1cccc(NCc2ccc(O)c3ncccc23)c1C [Compound 12]
Reply: TRUE

###

tgt: CYP2C19 (Homo sapiens, UniProt P33261)
Sequence (P33261 whole entry): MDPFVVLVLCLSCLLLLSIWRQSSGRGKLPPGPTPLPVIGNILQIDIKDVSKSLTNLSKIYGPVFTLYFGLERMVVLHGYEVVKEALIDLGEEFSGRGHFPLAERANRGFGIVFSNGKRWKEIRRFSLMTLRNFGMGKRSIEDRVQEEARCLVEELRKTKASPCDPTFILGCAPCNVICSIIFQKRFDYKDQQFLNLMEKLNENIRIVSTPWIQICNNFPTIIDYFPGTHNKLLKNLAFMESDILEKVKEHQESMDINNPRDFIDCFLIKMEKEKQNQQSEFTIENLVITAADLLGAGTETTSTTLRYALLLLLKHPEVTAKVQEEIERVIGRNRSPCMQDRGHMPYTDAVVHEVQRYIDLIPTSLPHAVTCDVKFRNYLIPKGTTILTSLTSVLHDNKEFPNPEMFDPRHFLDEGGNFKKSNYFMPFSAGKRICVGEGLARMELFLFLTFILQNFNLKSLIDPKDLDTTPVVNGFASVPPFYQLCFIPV
procedure.text: CYP inhibition screening, CYP2C19
Format: in vitro ADME
test.settings: test concentration 10 μM
recorded.endpoint: CYP inhibition, CYP2C19
Units required after the number.

[[record]]
compound = "COc1ccc(N2CCN(C(c3ccc(N(C)C)cc3)c3nnnn3C(C)(C)C)CC2)cc1 (centres unmarked)"
result = "55.7%"

[[record]]
compound = "Cn1c(=O)[nH]c(=O)c2c1nc(S)n2CC(O)COc1ccc(Cl)cc1 (centres unmarked)"
result = "9.5%"

[[record]]
compound = "Cc1cccc(NCc2ccc(O)c3ncccc23)c1C"
result = "29.4%"

[[record]]
compound = "CCN(CC)c1ccc(CN2CCc3nc(C)[nH]c(=O)c3C2)c(OC)c1"
result = "20.4%"


For the next question, use this compound.
Query: Quick one: CYP inhibition, CYP2C19 for `Nc1ccc(N2CCOCC2)c2nonc12` ?
Reply: 6.8%

###

tgt: CYP3A4 (Homo sapiens)
procedure.text: CYP inhibition screening, CYP3A4-Midazolam
Type: in vitro ADME
test.settings: test concentration 10 μM
Listed here are molecules together with their documented CYP inhibition, CYP3A4-Midazolam.
# output: bare number, implied unit %

Example results:
[[record]]
molecule = "Nc1ccc(N2CCOCC2)c2nonc12 [Compound 11]"
measure_unit = "%"
numeric_readout = 8.0

[[record]]
molecule = "COc1ccc(N2CCN(C(c3ccc(N(C)C)cc3)c3nnnn3C(C)(C)C)CC2)cc1 (centres unmarked) [Compound 31]"
measure_unit = "%"
numeric_readout = 18.1


Query: What does the data say about its CYP inhibition, CYP3A4-Midazolam? Entry: Cn1c(=O)[nH]c(=O)c2c1nc(S)n2CC(O)COc1ccc(Cl)cc1 (centres unmarked) [Compound 38]
Reply: 10.4

Query: Field entry: CCN(CC)c1ccc(CN2CCc3nc(C)[nH]c(=O)c3C2)c(OC)c1 [Compound 64]
Reply: 10.1

Query: Also check Cc1cccc(NCc2ccc(O)c3ncccc23)c1C [Compound 12]
Reply: −2.5

src = patent US20170029388A1
